Target: human TLR8 (Homo sapiens)
Construct: endogenous in cells; host or cells: primary human monocytes (CD14 microbeads) from buffy coats of healthy donors
Sequence (Q9NR97 27-1041): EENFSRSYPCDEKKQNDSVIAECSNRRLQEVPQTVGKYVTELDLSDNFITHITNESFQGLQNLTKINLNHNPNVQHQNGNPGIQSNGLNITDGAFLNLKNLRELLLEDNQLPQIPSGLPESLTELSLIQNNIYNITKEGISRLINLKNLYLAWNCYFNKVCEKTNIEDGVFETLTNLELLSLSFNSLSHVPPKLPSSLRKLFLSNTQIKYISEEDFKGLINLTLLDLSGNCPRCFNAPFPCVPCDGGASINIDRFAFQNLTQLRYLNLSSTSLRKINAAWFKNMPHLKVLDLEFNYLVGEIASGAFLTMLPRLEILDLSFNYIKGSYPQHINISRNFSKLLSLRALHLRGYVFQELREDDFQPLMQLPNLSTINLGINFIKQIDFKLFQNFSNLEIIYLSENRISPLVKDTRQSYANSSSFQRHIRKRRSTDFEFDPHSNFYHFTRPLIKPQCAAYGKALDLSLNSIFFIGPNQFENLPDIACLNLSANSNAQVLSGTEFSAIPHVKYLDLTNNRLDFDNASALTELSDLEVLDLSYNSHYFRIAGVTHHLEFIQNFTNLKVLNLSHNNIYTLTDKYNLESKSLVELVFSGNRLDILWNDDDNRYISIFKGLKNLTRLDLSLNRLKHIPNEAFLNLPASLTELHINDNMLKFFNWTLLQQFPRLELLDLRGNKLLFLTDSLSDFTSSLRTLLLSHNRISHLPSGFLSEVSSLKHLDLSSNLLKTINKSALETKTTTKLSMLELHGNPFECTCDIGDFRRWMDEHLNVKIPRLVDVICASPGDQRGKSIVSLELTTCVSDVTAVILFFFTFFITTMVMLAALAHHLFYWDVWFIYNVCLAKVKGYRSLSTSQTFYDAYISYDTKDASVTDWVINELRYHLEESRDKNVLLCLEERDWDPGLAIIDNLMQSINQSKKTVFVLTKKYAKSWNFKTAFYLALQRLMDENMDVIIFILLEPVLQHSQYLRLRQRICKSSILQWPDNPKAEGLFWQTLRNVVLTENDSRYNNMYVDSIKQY
Experiment: Inhibition of human TLR8 in human monocytes (TNF-alpha / IL-1 beta ELISA)
Assay type: cell-based
Conditions: human monocytes, agonist ORN8L 100 μg/mL, TNF-alpha readout, 24 hours; read-out: Human TLR8 IC50 TNF-a
pIC50: −log10 of the molar value.
QUANTITY KIND: pIC50

Worked examples, 3 compounds total:
CCCN1CCN(C(=O)C2CCN(c3nnc(C)c4c(C)n(-c5ccccc5)nc34)CC2)CC1 [64x]: 6.05
Cc1ccc(-n2nc3c(N4CCC(C(=O)NCCCc5c[nH]cn5)CC4)nnc(C)c3c2C)cc1: 5.18
Cc1ccc(-n2nc3c(N4CCC(C(=O)N5CC6CNCC6C5)CC4)nnc(C)c3c2C)cc1 (centres unmarked): ≤ 4.70

// pIC50 lookup, compound = Cc1ccc(-n2nc3c(N4CCC(C(=O)NC5CCN(C)C5)CC4)nnc(C)c3c2C)cc1 (centres unmarked) , result: < 5.00

GET /value?item= Cc1ccc(-n2nc3c(N4CCC(CCC(=O)NC5CN(C)C5)CC4)nnc(C)c3c2C)cc1 &field=pIC50 returns ≤ 4.70

According to the records, this compound Cc1ccc(-n2nc3c(N4CCC(C(=O)NCC(C)(C)CN)CC4)nnc(C)c3c2C)cc1 displays pIC50 of < 5.00

Documented pIC50 of Cc1ccc(-n2nc3c(N4CCCC(C(=O)NCCNC(C)C)C4)nnc(C)c3c2C)cc1 (centres unmarked) : ≤ 4.70

// pIC50 lookup, compound = Cc1ccc(-n2nc3c(N4CCC(C(=O)NC5CN(Cc6ccccc6)C5)CC4)nnc(C)c3c2C)cc1 , result: 6.11
